Each recorded value in this set is attributed to the RNAGym collection of RNA variant scans (doi:10.7554/elife.80360).

B1: Hairpin Ribozyme (parent)
chain: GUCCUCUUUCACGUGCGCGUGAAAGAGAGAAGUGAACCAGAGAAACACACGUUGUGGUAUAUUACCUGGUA

- Variants of: B1
- ASSAY_INFO: self-cleavage, relative activity (ratio to wild type); higher = more cleavage; co-transcriptional
MEASUREMENT_LABEL: self-cleavage
One number for each entry.

Solved cases below.
C38G A64C; 0.0814
G40U A44C; 0.105
U20C A36G; 1
U60G G69A; 0.0995

I have 4 variants here; please give me self-cleavage for each one.
1. A30C C46A
2. G57U U60A
3. A47C G69A
4. C66U A71U

Result:
[0.0713, 0.114, 0.151, 0.417]

I have 8 variants here; please give me self-cleavage for each one.
1. G40A G69C
2. C6U C48G
3. G57U U62A
4. A36U G69U
5. A28C A45G
6. A59U A64U
7. C4U A30C
8. C12G U52G

Result:
0.11
0.116
0.0927
0.228
0.201
0.191
0.104
0.718

I have 2 variants here; please give me self-cleavage for each one.
1. G32U C37U
2. U2A A43C

Result:
[0.161, 0.114]

I have 6 variants here; please give me self-cleavage for each one.
1. C6U G27C
2. G51U A64C
3. A22C C48G
4. C50A C66U
5. G57C G68U
6. G29U C50A

Result:
[0.106, 0.188, 0.138, 0.15, 0.172, 0.113]
